Test: collision cross section of unmodified peptide (TIMS, N2, iRT-aligned); higher = larger / more extended gas-phase ion
Settings: charge state: 3
# collision cross section listing for each entry below
I only need the number, in Å², no unit after it.

- SEQ: "TTLTSDESVKDHTTAGR"
  collision cross section / Å²: 528.1
- SEQ: "PPGFSPFRSSR"
  collision cross section / Å²: 455.41
- SEQ: "IQNGAQGIRFIYTR"
  collision cross section / Å²: 511.04
- SEQ: "FGTINIVHPKLGSYTK"
  collision cross section / Å²: 531.6
- SEQ: "AAYQAAIRGVGSAQSR"
  collision cross section / Å²: 509.17
- SEQ: "DDIIENAPTTHTEEYSGEEK"
  collision cross section / Å²: 551.19

Recall and state the measured collision cross section for DLSTVEALQNLKNLK .
543.69

Recall and state the measured collision cross section for SDDESSQKDIK .
449.63
